# target.desc: T1, cynomolgus monkey Protein S (cynomolgus monkey)
# T1 construct: also called cyno Protein S
# protocol.text: BLI Octet; antibody on anti-human Fc probe; Protein S 7.81-500 nM; 4 mM CaCl2

- binder: "Antibody 12 (antibody, V domains shown, Same variable regions as Antibody 24) VH: QVQLQESGPGLVKPSETLSLTCGVSGGSISSTNWWSWVRQPPGKGLEWIGEIYQTGSTDYDPSLKSRVTISIDKSKNQFSLKLYSVTAADTAVYYCARRFGELDYWGQGTLVTVSS VL: EIVMTQSPATLSVSPGERATLSCRASQSVTSNLAWYQQKPGQAPRLLIYDASTRATGIPARFSGSGSGTEFTLTISSLQSEDFAIYYCQQYNNWPTFGQGTRLEIK"
  kon: "258000 M⁻¹ s⁻¹"
- binder: "Antibody 8 (antibody, V domains shown, Same variable regions as Antibody 20) VH: QVQLQESGPGLVKPSETLSLTCAVSGYSISSGYYWGWIRQPPGKGLDWIGSIYYSGSTYYNPSLKSRVTISVDTSKNQISLKLSSVTAADTAVYYCATTYSDIVTGYYNDAFDIWGQGTMVTVSS VL: EIVMTQSPATLSVSPGERATLSCRASQRINSNLAWYQQKPGQAPRLLIYGASTRATGIPARFSGSGSGTEFTLTISSLQSEDFAAYYCQQYDNWPLTFGGGTKVEIK"
  kon: "85800 M⁻¹ s⁻¹"

Data provenance is patent US20230083243A1.
